Provide the reported koff of each item.
Target: T1, human alpha CGRP (SEQ ID NO: 80) (human, not fully specified)
T1 construct: also called human αCGRP; hαCGRP
T1 peptide: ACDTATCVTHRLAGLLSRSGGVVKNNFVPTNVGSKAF
Assay: SPR, 37 C, mutein captured, CGRP analyte
Answer in s⁻¹, number only, no unit symbol.

Asked: Query: koff; subject: lipocalin mutein SEQ ID NO: 21 (designed binder, biotinylated by NHS chemistry for capture in SPR) QDSTSDLIPAPPLSKVPLQQNFQDNQFHGKWYVVGRAGNDALREDKDPEKMEATIYELKEDKSYNVTDVGFVQKKCMYVIHTFVPGSQPGEFTLGNIKSYPGVTSALIRVVNTNYNQHAMVFVKLVKQNRELFEITLYGRTKELTSELKENFIRFSKSLGLPENHIVFPVPIDQCIDGSAWSHPQFEK
Given back: 1.71e-05

Asked: Moving on to the next binder: lipocalin mutein SEQ ID NO: 15 (designed binder, biotinylated by NHS chemistry for capture in SPR) QDSTSDLIPAPPLSKVPLQQNFQDNQFHGKWYVVGRAANDRLREDKDPEKMEATIYELKEDKSYNVTDVGFSRKKCIYVIHTFVPGSQPGEFTLGNIKSYPGTTSGLVRVVSTNYNQHAMVFFKVVGQNRESFEITLYGRTKELTSELKENFIRFSKSLGLPENHIVFPVPIDQCIDGSAWSHPQFEK
Given back: 0.000238

Asked: lipocalin mutein SEQ ID NO: 8 (designed binder, biotinylated by NHS chemistry for capture in SPR) QDSTSDLIPAPPLSKVPLQQNFQDNQFHGKWYVVGWAGNTLRREDKNPTKMQATIYELKEDKSYNVTWVYFSEKKCNYHIETSVPGSQPGEFTLGTIKSYPGETSILVRVVSTNYNQHAMVFFKGVSQNREIFEITLYGRTKELTSELKENFIRFSKSLGLPENHIVFPVPIDQCIDGSAWSHPQFEK , same question.
Given back: 0.000595

Asked: And lipocalin mutein SEQ ID NO: 25 (designed binder, biotinylated by NHS chemistry for capture in SPR) QDSTSDLIPAPPLSKVPLQQNFQDNQFHGKWYVVGWAGNTLLREDKDPIKMQAKIYELKEDRSYNVTWVYFADKKCNYHIETFVPGSQPGEFTLGTIKSYPGETPILVRVVSTNYNQHAMVFFKGVNQNREIFEIILYGRTKELTNELKENFIRFSKSLGLPENHIVFPVPIDQCIDGSAWSHPQFEK ?
Given back: 1.65e-05

Asked: Same read-out for lipocalin mutein SEQ ID NO: 13 (designed binder, biotinylated by NHS chemistry for capture in SPR) QDSTSDLIPAPPLSKVPLQQNFQDNQFHGKWYVVGRAGNEELREDKDPQKMEATIYELKEDKSYNVTDVGFSEKKCIYVIHTFVPGSQPGEFTLGNIKSYPGVTSALVRVVSTNYNQHAMVFFKVVKQNRELFEITLYGRTKELTSELKENFIRFSKSLGLPENHIVFPVPIDQCIDGSAWSHPQFEK ?
Given back: 0.000436

Asked: Please give the result for lipocalin mutein SEQ ID NO: 7 (designed binder, biotinylated by NHS chemistry for capture in SPR) QDSTSDLIPAPPLSKVPLQQNFQDNQFHGKWYVVGWAGNTLLREDKDPIKMQATIYELKEDKSYNVTWVYFSEKRCNYHIETSVPGSQPGEFTLGTIKSYPGETSILVRVVSTNYNQHAMVFFKGVSQNREIFEITLYGRTKELTSELKENFIRFSKSLGLPENHIVFPVPIDQCIDGSAWSHPQFEK too.
Given back: 0.000249
